Where these numbers come from: patent US20130251703A1

# target or system: human HER3 endogenously expressed on human cancer cells (SK-Br-3, BT-474, MCF7) (human, UniProt P21860 20-1342)
# experimental protocol: cell-based or functional assay
As shown below, each of these binders has a reported BT474 pHER3 IC50 value.
Output spec: scalar in pM, unitless text.

binder="MOR13657 (antibody, human IgG1, lambda, V domains shown, Tested as IgG) VH: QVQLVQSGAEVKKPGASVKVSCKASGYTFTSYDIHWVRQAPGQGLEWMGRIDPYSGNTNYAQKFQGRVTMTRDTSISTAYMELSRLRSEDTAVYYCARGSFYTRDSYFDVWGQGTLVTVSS VL: DIALTQPASVSGSPGQSITISCTGTSSDVGTYNQVSWYQQHPGKAPKLMIYGVSKRPSGVSNRFSGSKSGNTASLTISGLQAEDEADYYCSARDGWSEYVFGGGTKLTVLG" reported_endpoint="BT474 pHER3 IC50" measured_value=372

As a next step, examine the binder that follows.
I'd like to know its BT474 pHER3 IC50. The binder in question is MOR12515 (antibody, human IgG1, lambda, V domains shown, Tested as IgG) VH: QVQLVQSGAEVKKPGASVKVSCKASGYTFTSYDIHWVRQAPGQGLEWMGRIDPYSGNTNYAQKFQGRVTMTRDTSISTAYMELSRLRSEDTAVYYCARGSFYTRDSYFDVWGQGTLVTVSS VL: DIALTQPASVSGSPGQSITISCTGTSSDVGTYNQVSWYQQHPGKAPKLMIYGVSKRPSGVSNRFSGSKSGNTASLTISGLQAEDEADYYCYSRDSPMDQVFGGGTKLTVLG
365
